# Tested on: K562
# method-summary: Cytotoxicity against human K562 cells assessed as inhibition of cell growth by MTT assay
# Assay type: functional, cell-based
experimental-readout: pIC50
Please express pIC50 as -log10 of the molar concentration.

Task: Tell us which pIC50 value is on record for COc1cc(O)cc2c1O[C@]1(C)CC[C@H]3C(C)(C)CCC[C@]3(C)[C@H]1C2
Result: 4.85

Task: Supply pIC50 value. Item: CCCCOC1=CC(=O)C(O)=C(C[C@@]2(C)CC[C@]3(C)C(C)=CCC[C@H]3[C@H]2C)C1=O
Result: 5.52

---

Kindly supply the reported IC50 values for the records listed here.
# System: K562
# method-summary: Cytotoxicity against human K562 cells assessed as inhibition of cell growth by MTT assay
# Type: functional, cell-based

Task: For K562, give the measured IC50 of the entry C=C1CCC[C@H]2[C@@H]1CC[C@@H](C)[C@@]2(C)CC1=CC(=O)C=C(OC)C1=O
Result: > 30 µM

Task: Quote IC50 with test system K562 for COC(=O)/C=C1/OC(=O)C(C[C@@]2(C)CC[C@]3(C)C(C)=CCC[C@H]3[C@H]2C)=C1O
Result: > 30 µM

Task: Please respond with reported IC50 (system K562) for COC1=CC(=O)[C@@H](C[C@@]2(C)CC[C@]3(C)C(C)=CCC[C@H]3[C@H]2C)[C@H]1O .
Result: > 30 µM

Task: Retrieve IC50 on K562; query COC1=CC(=O)[C@H](C[C@@]2(C)CC[C@]3(C)C(C)=CCC[C@H]3[C@H]2C)[C@H]1O
Result: > 30 µM

Task: Give IC50 for COC1=CC(=O)C(O)=C(C[C@@]2(C)CC[C@]3(C)[C@@H](C)C(=O)CC[C@H]3[C@H]2C)C1=O tested on K562.
Result: 16.1 µM

Task: Jot down IC50 (K562) of COC1=CC(=O)C2=C(C[C@@H]3[C@@]4(C)CCCC(C)(C)[C@@H]4CC[C@@]23C)C1=O .
Result: > 30 µM

Task: Find IC50 for COc1cccc2c1C(=O)c1c(O)c3c(c(O)c1C2=O)C[C@@](O)(C(=O)CO)C[C@@H]3O[C@H]1C[C@H](N)[C@H](O)[C@H](C)O1 on K562 and write it down.
Result: < 1 µM

---

# method-summary: Cytotoxicity against human L02 cells assessed as inhibition of cell growth by SRB assay
# Type: toxicity, cell-based
pIC50: −log10 of the molar value.
experimental-readout: pIC50

Task: Give me measured pIC50, please, for this compound: COC1=CC(=O)C2=C(C[C@@H]3[C@@]4(C)CCCC(C)(C)[C@@H]4CC[C@@]23C)C1=O
Result: < 4.52

Task: Name the recorded pIC50 of the compound listed here: C=C1CCC[C@H]2[C@@H]1CC[C@@H](C)[C@@]2(C)CC1=CC(=O)C=C(OC)C1=O
Result: < 4.52

Task: Consider the compound COC1=CC(=O)C(O)=C(C[C@@]2(C)CC[C@]3(C)C(C=O)=CCC[C@H]3[C@H]2C)C1=O and give its recorded pIC50.
Result: 4.92

Task: Return the recorded pIC50 value; entry: COC1=CC(=O)[C@@H](C[C@@]2(C)CC[C@]3(C)C(C)=CCC[C@H]3[C@H]2C)[C@H]1O
Result: < 4.52

Task: Quick one: give measured pIC50 for COC1=CC(=O)[C@H](C[C@@]2(C)CC[C@]3(C)C(C)=CCC[C@H]3[C@H]2C)[C@H]1O
Result: < 4.52
